- test_protocol: Blood-brain barrier experiment, brain and plasma concentrations after IV dosing
- Format: in vivo, CD-1 mice
- measurement_conditions: CD-1, mouse, brain, iv, 1 mg/kg, IV 1 mg/kg; 0.083 h; single animals; read-out: Brain concentration
measured_property: concentration at 0.083 h (ng/g)
The reply should be a number in ng/g, with the unit left off.

compound="O=[N+]([O-])c1ccc([C@@H](OP(=O)(N2CC2)N2CC2)C(F)(F)F)c2ccccc12 (single isomer, unassigned) [Compound C]" unit_abbreviation=ng/g data_value=415

query: Recorded concentration at 0.083 h for O=[N+]([O-])c1ccc([C@H](OP(=O)(N2CC2)N2CC2)C(F)(F)F)c2ccccc12 [Compound B] , please?
result: 992

* * *

- test_protocol: Blood-brain barrier experiment, brain and plasma concentrations after IV dosing
- Type: in vivo, CD-1 mice
- measurement_conditions: CD-1, mouse, brain, iv, 1 mg/kg, IV 1 mg/kg; 1 h; single animals; read-out: Brain concentration
measured_property: concentration at 1 h (ng/g)
Unit ng/g implied. Number only.

compound="O=[N+]([O-])c1ccc([C@H](OP(=O)(N2CC2)N2CC2)C(F)(F)F)c2ccccc12 [Compound B]" data_value=88.1

query: Which concentration at 1 h is reported for this compound? O=[N+]([O-])c1ccc([C@@H](OP(=O)(N2CC2)N2CC2)C(F)(F)F)c2ccccc12 (single isomer, unassigned) [Compound C]
result: 28.6

* * *

- system_tested: P-gp (Homo sapiens)
- test_protocol: P-gp substrate evaluation, MDCKII-MDR1 penetration test
- measurement_conditions: dog, MDCK-MDR1, Recovery (%) BL-AP, verapamil 100 μM
The following compounds are shown together with reported recovery at 2 h values.
Numbers only here, please. The scale is %.

compound="O=[N+]([O-])c1ccc([C@@H](OP(=O)(N2CC2)N2CC2)C(F)(F)F)c2ccccc12 (single isomer, unassigned)" measured_property="recovery at 2 h" data_value=66.3

Next, consider the following compound.
query: Lookup: recovery at 2 h / P-gp (Homo sapiens) / O=[N+]([O-])c1ccc([C@H](OP(=O)(N2CC2)N2CC2)C(F)(F)F)c2ccccc12
result: 68.3

* * *

- System: NCI-H1563
- test_protocol: Cytotoxicity, NSCLC cell line NCI-H1563
- Type: cell-based
- measurement_conditions: Homo sapiens
measured_property: pIC50
pIC50 (log units): -log10 of the concentration in mol/L.

query: Look at this molecule and give its reported pIC50. O=[N+]([O-])c1ccc(C(OP(=O)(N2CC2)N2CC2)C(F)(F)F)c2ccccc12 (racemic) [Compound A]
result: 5.35

* * *

- test_protocol: Plasma stability, mouse
- Assay type: in vitro ADME
- measurement_conditions: Mouse plasma; in vitro; read-out: t½
measured_property: half-life at 5 µM (min)
Please reply with the bare figure in min and do not write the unit itself.

query: Data request, read-out half-life at 5 µM, for O=[N+]([O-])c1ccc(C(OP(=O)(N2CC2)N2CC2)C(F)(F)F)c2ccccc12 (racemic) [Compound A]
result: 189

* * *

- system_tested: P-gp (Homo sapiens, UniProt P08183)
- Sequence (P08183 whole entry): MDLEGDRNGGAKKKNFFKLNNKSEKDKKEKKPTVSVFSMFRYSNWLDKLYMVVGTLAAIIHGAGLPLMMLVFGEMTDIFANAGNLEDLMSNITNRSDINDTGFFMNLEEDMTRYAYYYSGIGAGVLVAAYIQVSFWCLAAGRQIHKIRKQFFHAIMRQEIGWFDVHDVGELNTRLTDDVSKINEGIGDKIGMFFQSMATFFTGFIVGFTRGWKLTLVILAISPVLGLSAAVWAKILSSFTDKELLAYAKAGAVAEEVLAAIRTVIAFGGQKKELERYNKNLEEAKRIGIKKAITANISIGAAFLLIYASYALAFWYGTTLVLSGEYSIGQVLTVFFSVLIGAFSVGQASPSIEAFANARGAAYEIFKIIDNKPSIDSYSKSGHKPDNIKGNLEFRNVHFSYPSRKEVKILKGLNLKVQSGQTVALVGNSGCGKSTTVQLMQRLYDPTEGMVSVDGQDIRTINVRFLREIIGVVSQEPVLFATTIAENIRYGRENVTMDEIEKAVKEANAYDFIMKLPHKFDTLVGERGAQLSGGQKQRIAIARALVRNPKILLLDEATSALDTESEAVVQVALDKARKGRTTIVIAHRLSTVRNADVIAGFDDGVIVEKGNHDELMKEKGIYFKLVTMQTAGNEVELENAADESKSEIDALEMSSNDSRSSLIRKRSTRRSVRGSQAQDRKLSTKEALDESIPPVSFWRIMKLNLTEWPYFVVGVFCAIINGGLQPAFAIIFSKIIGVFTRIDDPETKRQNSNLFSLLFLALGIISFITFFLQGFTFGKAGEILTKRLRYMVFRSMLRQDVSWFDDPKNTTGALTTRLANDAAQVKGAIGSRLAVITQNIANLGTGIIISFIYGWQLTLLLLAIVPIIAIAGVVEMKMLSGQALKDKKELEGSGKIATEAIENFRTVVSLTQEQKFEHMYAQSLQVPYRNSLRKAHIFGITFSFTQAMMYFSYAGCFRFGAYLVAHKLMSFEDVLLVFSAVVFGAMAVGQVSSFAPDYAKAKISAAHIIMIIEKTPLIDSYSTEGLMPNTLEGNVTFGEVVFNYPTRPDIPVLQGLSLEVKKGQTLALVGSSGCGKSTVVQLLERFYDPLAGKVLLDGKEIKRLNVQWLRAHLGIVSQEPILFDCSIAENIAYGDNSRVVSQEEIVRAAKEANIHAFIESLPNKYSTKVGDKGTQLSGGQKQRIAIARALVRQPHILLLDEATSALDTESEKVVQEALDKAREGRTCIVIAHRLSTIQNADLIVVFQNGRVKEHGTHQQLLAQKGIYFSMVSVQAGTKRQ
- test_protocol: P-gp substrate evaluation, MDCKII-MDR1 penetration test
- measurement_conditions: dog, MDCK-MDR1, Recovery (%) AP-BL, verapamil 100 μM
Listing: recovery at 2 h of selected compounds
Respond numerically; units are % and should not be typed.

compound="O=[N+]([O-])c1ccc([C@H](OP(=O)(N2CC2)N2CC2)C(F)(F)F)c2ccccc12 [Compound B]" measured_property="recovery at 2 h" data_value=65.2

Could you now consider this next compound?
query: Form: Entry = O=[N+]([O-])c1ccc([C@@H](OP(=O)(N2CC2)N2CC2)C(F)(F)F)c2ccccc12 (single isomer, unassigned) [Compound C] | System = P-gp (Homo sapiens, UniProt P08183) | recovery at 2 h = ____
result: 61.5

* * *

- test_protocol: Plasma stability, rat
- measurement_conditions: rat plasma
measured_property: half-life at 5 µM
Report field: quantity (unit follows the number).

query: Give its half-life at 5 µM value. Item: O=[N+]([O-])c1ccc(C(OP(=O)(N2CC2)N2CC2)C(F)(F)F)c2ccccc12 (racemic)
result: 226 min

* * *

The reader will find reported half-life values listed item by item below.
- test_protocol: Blood-brain barrier experiment, brain and plasma concentrations after IV dosing
- Format: in vivo, CD-1 mice
- measurement_conditions: CD-1, mouse; plasma; IV 1 mg/kg; read-out: T½ (converted)
Kindly answer with a numeric value in min, unit omitted.

compound="O=[N+]([O-])c1ccc([C@@H](OP(=O)(N2CC2)N2CC2)C(F)(F)F)c2ccccc12 (single isomer, unassigned) [Compound C]" data_value=18

// next entry
query: Param item = O=[N+]([O-])c1ccc([C@H](OP(=O)(N2CC2)N2CC2)C(F)(F)F)c2ccccc12 [Compound B] ; retrieve measured half-life.
result: 27

* * *

- test_protocol: Blood-brain barrier experiment, brain and plasma concentrations after IV dosing
- Format: in vivo, CD-1 mice
- measurement_conditions: CD-1, mouse; brain tissue; IV 1 mg/kg
Cmax for assorted compounds
Numbers only here, please. The scale is ng/g.

compound="O=[N+]([O-])c1ccc([C@@H](OP(=O)(N2CC2)N2CC2)C(F)(F)F)c2ccccc12 (single isomer, unassigned) [Compound C]" data_value=445

Next:
query: I am curious: what Cmax value has been reported for O=[N+]([O-])c1ccc([C@H](OP(=O)(N2CC2)N2CC2)C(F)(F)F)c2ccccc12 [Compound B] ?
result: 983

* * *

- test_protocol: Blood-brain barrier experiment, brain and plasma concentrations after IV dosing
- Assay type: in vivo, CD-1 mice
- measurement_conditions: CD-1, mouse, plasma, iv, 1 mg/kg, IV 1 mg/kg; 2 h; single animals; read-out: Plasma concentration
measured_property: concentration at 2 h
Respond with a number, then the unit of measure.

query: Return reported concentration at 2 h; argument: O=[N+]([O-])c1ccc([C@H](OP(=O)(N2CC2)N2CC2)C(F)(F)F)c2ccccc12
result: 8.54 ng/mL

* * *

- system_tested: P-gp (Homo sapiens)
- test_protocol: P-gp substrate evaluation, MDCKII-MDR1 penetration test
- measurement_conditions: dog, MDCK-MDR1, Recovery (%) AP-BL, verapamil 0 μM
Class Satisfied: recovery at 2 h at least 80%. Class Not satisfied: recovery at 2 h below 80%.

compound="O=[N+]([O-])c1ccc([C@@H](OP(=O)(N2CC2)N2CC2)C(F)(F)F)c2ccccc12 (single isomer, unassigned) [Compound C]" group="Not satisfied"
compound="COc1cc2nc(N3CCN(C(=O)c4ccco4)CC3)nc(N)c2cc1OC [prazosin]" group=Satisfied
compound="O=[N+]([O-])c1ccc([C@H](OP(=O)(N2CC2)N2CC2)C(F)(F)F)c2ccccc12 [Compound B]" group="Not satisfied"

Now look at this entry.
query: Evaluate COCCc1ccc(OCC(O)CNC(C)C)cc1 (centres unmarked) [Metoprolol] : recovery at 2 h at minimum 80%?
result: Satisfied

* * *

- System: HPAF-II
- test_protocol: Cytotoxicity, pancreatic cancer PA cells HPAF-II
- Assay type: cell-based
- measurement_conditions: Homo sapiens
- Method: Compounds were exposed at various concentrations for 72 hours, followed by a wash step. Fresh medium was added for growth. The cell was stained to determine the cell survival rate and compared with controls treated with medium only. In particular, exponentially grown cells were inoculated in 96-well plates at a density of 2×10^3 cells/100 μl/well and incubated for 24 hours at 37° C. and under the conditions of 5% CO2, 95% air and 100% relative humidity before addition of 99 μl of culture solution. […]
measured_property: pIC50
Just so you know, pIC50 here is -log10 of the concentration in molar units; reply with that number alone.

query: Which pIC50 is listed for O=[N+]([O-])c1ccc(C(OP(=O)(N2CC2)N2CC2)C(F)(F)F)c2ccccc12 (racemic) ?
result: 4.58

* * *

- test_protocol: Blood-brain barrier experiment, brain and plasma concentrations after IV dosing
- Assay type: in vivo, CD-1 mice
- measurement_conditions: CD-1, mouse, brain, iv, 1 mg/kg, IV 1 mg/kg; 4 h; single animals
measured_property: concentration at 4 h (ng/g)
Field format: number, assumed ng/g, no unit text.

query: Returns the measured concentration at 4 h for the input compound. Input: O=[N+]([O-])c1ccc([C@H](OP(=O)(N2CC2)N2CC2)C(F)(F)F)c2ccccc12 [Compound B]
result: 1.34

* * *

- test_protocol: Blood-brain barrier experiment, brain and plasma concentrations after IV dosing
- Format: in vivo, CD-1 mice
- measurement_conditions: CD-1, mouse, brain/plasma, iv, 1 mg/kg, IV 1 mg/kg; 0.083 h; read-out: Mean Ratio (Brain/Plasma)
Below: a set of entries, each annotated with reported Kp at 0.083 h.
# print the numeric value only

molecule=O=[N+]([O-])c1ccc([C@H](OP(=O)(N2CC2)N2CC2)C(F)(F)F)c2ccccc12 data_value=2.25

query: Please give the measured Kp at 0.083 h for this molecule: O=[N+]([O-])c1ccc([C@@H](OP(=O)(N2CC2)N2CC2)C(F)(F)F)c2ccccc12 (single isomer, unassigned)
result: 1.07
